Target: T1, His-tagged human TREM2 ECD (human, UniProt Q9NZC2 19-172)
T1 construct: Biacore and HDX say only recombinant human TREM2 (ECD); also called recombinant human TREM2; hTREM2
T1 sequence: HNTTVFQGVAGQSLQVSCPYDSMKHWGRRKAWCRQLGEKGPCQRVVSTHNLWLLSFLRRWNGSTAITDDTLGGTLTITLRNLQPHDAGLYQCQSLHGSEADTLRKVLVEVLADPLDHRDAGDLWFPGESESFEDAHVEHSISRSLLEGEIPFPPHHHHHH
Assay: SPR (Biacore), antibody captured via anti-human Fab, recombinant TREM2 ECD injected, 1:1 fit
The reader will find reported Kd values listed item by item below.
# number only, unit nM dropped from output

The examples below pair each entry with its known result.
| binder | Kd / nM |
| --- | --- |
| CL0020123 (antibody, V domains shown, also called Clone CL0020123) VH: EVQLQQSGAELVRSGASVKLSCTASGFSIEDFYIHWVKQRPEQGLEWIGWIDPENGDSKYAPKFQGKATMTADTSSNTAYLHLSSLTSEDTAVYYCHADHGNYGSTMDYWGQGTSVTVSS VL: DIQMNQSPSSLSASLGDTVTITCHASQHINVWLSWYQQKPGDHPKLLIYKASNLHTGVPSRFSGSGSGTGFTLTISSLQPEDIATYYCQQGQTYPRTFGGGTKLEIK | 0.068 |
| CL0020139 (antibody, V domains shown, also called Clone CL0020139) VH: EVQLQQSGPELVKPGASVKMSCKAPGYSFTSYLMNWVKQKPGQGLEWIGYINPYSAGSNYNEKFKDKATLTSDKSSSTAYMELRSLTSEDSAVYFCARSSYRYGFDYWGQGTTLTVSS VL: DIQMTQSSSSFSVSLGDRVTITCKASEDIYNRLAWYQQKPGNAPRLLISGATSLETGVPSRFSGSGSGKDYTLSITSLQTEDVATYSCQQYWSTPWTFGGGTKLEIK | 1.6 |
| CL0020315 (antibody, V domains shown, also called Clone CL0020315) VH: EVQLQQSGPELVKPGASVKISCKASGYTFTDYNIHWVKQSHGKSLEWIGYIYPYNGVTGYNQKFKSKATLTVDNSSSTAYMELRSLTSEDSAVYYCARSRVDGDYWGQGTTLTVSS VL: DVVMTQTPLSLPVSLGDQASISCRSSQSLVHSNGNTYLHWYLQKPGQSPKLLIYKISNRFSGVPDRFSGSGSGTDFTLKISRVEAEDLGVYFCSQSTHVPLTFGAGTKLELK | 0.0259 |

Reported Kd for CL0020096 (antibody, V domains shown, also called Clone CL0020096) VH: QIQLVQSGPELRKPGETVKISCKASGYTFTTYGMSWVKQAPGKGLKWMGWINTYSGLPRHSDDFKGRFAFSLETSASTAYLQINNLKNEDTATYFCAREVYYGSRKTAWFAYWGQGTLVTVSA VL: DLVMSQSPSSLAVSVGERVTMSCKSSQSLLYSNDQKNYLAWYQQIPGQSPKLLIYWASTRESGVPDRFTGSGSGTDFTLTISSVKAEDLAVYFCQQYYSYPPTFGAGTKLELK : what is it?
5.54

Reported Kd for CL0020127 (antibody, V domains shown, also called Clone CL0020127) VH: EVQLQQSGPVLVKPGASVKMSCKASGYKFTDYYMNWVKQSHGKSLEWIGTINPYSGGISYNQKFKGKATLTVDKSSSTAYMELNSLTSEASAVYYCTRRNWDGRYAMDYWGQGTSVTVSS VL: DIVMTQSHKFMSTSVGDRVSITCKASQDVSTAVAWYQQKPGQSPKLLIYWASTRHTGVPDRFTGSGSGTDFTLTISNVQSEDLAEYFCQQYSSYPFTFGGGTKLEIK : what is it?
3.37

Reported Kd for CL0020113 (antibody, V domains shown, also called Clone CL0020113) VH: QIQLVQSGPELKKPGESLKISCKASGYTFTDYAMQWVKQAPGKGLQYMGWINTQTGKPTYADDFKERFVFSLETSASTAYLKINNLKNDDMATYLCARSYGGEYNWIAYWGQGTLVTVSS VL: DIVMTQTPSSQAVSAGEKVTMNCKSSQSLLYNENKKNYLAWYQQKPGQSPKLLIYWASTRESGVPDRFIGSGSGTDFTLTISSVQAEDLAVYYCQQSYNFPPTFGGGTKLELK : what is it?
7.81

Reported Kd for CL0020314 (antibody, V domains shown, also called Clone CL0020314) VH: DVKLVESGGGLVKLGGSLKLSCAASGFTFSSYYMSWVRQTPEKRLELVAAINTNGGRTYYPDTVKGRFTISRDNAKNTLYLQMSSLKSEDTALYYCARESDGGAFAYWGQGTLVTVSA VL: DVVMTQTPLSLPVSLGDQASISCRSSQSLVHSNGNTYLHWYLQKPGQSPKLLIYKVSNRFSGVPDRFSGSGSGTDFTLKISRVEAEDLGVYFCSQNTHVPLTFGAGTKLELK : what is it?
0.33
